System: EKVX
experiment: NCI tumour cell line growth inhibition, 48 h
Active and inactive are the calls of the source. Cut-off read from the data, not from the text of the source: active = GI50 up to about 1.1 µM and inactive = higher.
Your response should consist of one outcome taken from active, inactive

molecule=COc1ccc(NCc2cc(OC)c(OC)c(OC)c2)cc1 target_desc=EKVX cat=inactive
molecule="O=C(O)C(Cc1ccccc1)NCc1c(O)ccc2c(-c3ccccc3)cc(=O)oc12 (stereo unspecified)" target_desc=EKVX cat=inactive
molecule="COC(=O)c1ccccc1C1CN=NC12Cc1ccc(C)c(C)c1C2=O (stereo unspecified)" target_desc=EKVX cat=inactive
molecule=COc1ccc(-c2[nH]c(-c3ccc(OC)cc3)c(-c3ccccn3)c2-c2ccccn2)cc1 target_desc=EKVX cat=inactive
molecule=Cc1[nH]n(C2=NCCN2)c(=O)c1C target_desc=EKVX cat=inactive
molecule=O=c1oc2c/c(=C\c3ccccn3)c(=O)c3cccc1c3-2 target_desc=EKVX cat=inactive
molecule="COC(=O)C(=O)C(C#N)c1cccc2ccccc12 (stereo unspecified)" target_desc=EKVX cat=inactive
molecule="CC1(C)OC2C(O1)[C@H]1OC(C(Cl)(Cl)Cl)=N[C@H]1C(I)[C@H]2N1C(=O)c2ccccc2C1=O (stereo partly specified)" target_desc=EKVX cat=inactive

Data request: Hello, I am checking results. What call was entered for O=C1c2cc3c(cc2CC1Cc1ccc2c(c1)CCC2)CCC3 (stereo unspecified) ?
Data returned: inactive

Data request: Proceed to CC(c1ccccc1)N1CCN(C(C)c2ccccc2)CC1 (stereo unspecified)
Data returned: inactive

Data request: Proceed to `COc1cc(OC)c(-c2oc3ccccc3c(=O)c2O)c(OC)c1`
Data returned: inactive

Data request: Proceed to O=C1CC(c2ccc(Cl)cc2)C2(C(=O)NC(=O)NC2=O)C(c2ccc(Cl)cc2)C1 (stereo unspecified)
Data returned: inactive

Data request: Proceed to `CCCCCCCCCCCCCP(=O)(O)OCC`
Data returned: inactive

Data request: Proceed to C=CCCC(On1c(-c2ccc(Cl)cc2)csc1=S)c1ccccc1 (stereo unspecified)
Data returned: inactive

Data request: Proceed to OC(CCNCc1ccccc1)c1ccc2ccccc2c1 (stereo unspecified)
Data returned: inactive

Data request: Proceed to `Cc1ccc(NCc2nnc3c(-c4ccccc4)nc4ccccc4n23)cc1`
Data returned: inactive

Data request: Proceed to `CCOC(=O)/C=C(/C(=O)OCC)n1cc(C)c(=O)n(/C(=C/C(=O)OCC)C(=O)OCC)c1=O`
Data returned: inactive

====

Test system: OVCAR-3
experiment: NCI tumour cell line growth inhibition, 48 h
The source made the active and inactive calls. Rule as the data show it: active = GI50 up to about 1.1 µM and inactive = higher.
Consider the following molecules; for each one, report its GI50.

molecule=CSc1nnc2n1-c1ccccc1SCC2 target_desc=OVCAR-3 reported_metric=GI50 reading="> 100 µM (inactive)"

Batch request: GI50 per item, same order as input.
1. COc1ccc(C2CC(=O)c3c(O)cc(O)cc3O2)cc1O (stereo unspecified)
2. N#C[C@H](C(=O)c1ccccc1F)c1nc2ccccc2s1
3. CCOC(=O)c1nc(C)oc1C(F)(F)F
4. Cc1ccc(S(=O)(=O)Nc2nc3ccccc3c(=O)n2C2CCCCC2)cc1
5. COP(=O)(OC)C1=c2c(C)noc2=C2C=COC2C1=O (stereo unspecified)

Data returned:
1: > 100 µM (inactive); 2: 18.5 µM (inactive); 3: > 100 µM (inactive); 4: 76.7 µM (inactive); 5: > 100 µM (inactive)

====

Consider the following compounds; for each one, report its GI50.
Tested on: MDA-N
experiment: NCI tumour cell line growth inhibition, 48 h
Calls of active or inactive are those of the source. Rule as the data show it: active = GI50 up to about 1.1 µM and inactive = higher.

Completed entries (count: 4):
compound=COc1cc(CCN)c(OC)c(OC)c1 reported_metric=GI50 reading="39.2 µM (inactive)"
compound=CCOC(=O)C1=NN(c2ccc(C)cc2)C2=CC(C)=NN(C)C(=S)N21 reported_metric=GI50 reading="> 100 µM (inactive)"
compound="C=C(C)C1CC[C@@](C)(O)[C@H](C#N)C1 (stereo partly drawn)" reported_metric=GI50 reading="> 100 µM (inactive)"
compound=O=[N+]([O-])C(/C(Cl)=C(/Cl)N1CCCCC1)=C1\NCCO1 reported_metric=GI50 reading="> 100 µM (inactive)"

Batch request: GI50 per item, same order as input.
1. O=C1CN(c2ccccc2)Cc2nc(Cl)ccc2N1
2. CN(/N=C/c1ccccn1)C1=NCCN1
3. COc1ccccc1CNC(=O)[C@H](Cc1ccc(O)cn1)NC(C)=O
4. C#CCN(C(=O)C(F)(F)F)C(/C=C\C(=O)OC)(C(=O)OCC)C(=O)OCC
5. CN(C)CCNc1nc2c(c(=O)n(C)c(=O)n2C)n1C
6. O=c1oc2c/c(=C\c3ccccn3)c(=O)c3cccc1c3-2
7. CN/C(=N\N)NS(=O)(=O)c1cc(C)c(Cl)cc1S

Data returned:
["> 100 µM (inactive)", "> 100 µM (inactive)", "> 100 µM (inactive)", "> 100 µM (inactive)", "> 100 µM (inactive)", "> 100 µM (inactive)", "> 100 µM (inactive)"]

Batch request: GI50 per item, same order as input.
1. O=C(O)C(Cc1ccccc1)NCc1c(O)ccc2c(-c3ccccc3)cc(=O)oc12 (stereo not drawn)
2. CC(=O)Oc1ccc2cc(-c3ccccc3OC(C)=O)c(=O)oc2c1
3. Brc1cccc(Nc2ncnc3sc4c(c23)CCC2(C4)OCCO2)c1
4. CC[C@@]1(O)C(=O)OCc2c1cc1n(c2=O)Cc2c-1nc1ccccc1c2/C=N/NC(=O)C[N+](C)(C)C
5. COC(=O)c1cc(C#N)[nH]c1-c1cccs1
6. CCOc1ccc(Nc2nc(N)nc(N)c2N=O)cc1

Data returned:
1. > 100 µM (inactive)
2. 49.5 µM (inactive)
3. 33.6 µM (inactive)
4. 9.62 µM (inactive)
5. > 100 µM (inactive)
6. 62.1 µM (inactive)

Batch request: GI50 per item, same order as input.
1. COc1cc(OC)c(OC)cc1/C=C/c1ccc2ccccc2n1
2. CC1=C(C(=O)OCCO[N+](=O)[O-])C(c2cccc([N+](=O)[O-])c2)C(C(=O)OC(C)C)=C(C)N1 (stereo not drawn)
3. CC(/C=C/c1ccccc1)=N\NC(N)=S
4. COc1ccc(-c2nc(O)c3ccccc3n2)c(OC)c1
5. CC(C)(C)C1=CC(=C2C=Cc3ccccc3O2)C=C(C(C)(C)C)C1=O
6. CC(=O)OCC1OC(n2c(=S)n(-c3ccc([N+](=O)[O-])cc3)c(=O)c3ccccc32)C(OC(C)=O)C(OC(C)=O)C1OC(C)=O (stereo not drawn)

Data returned:
["8.07 µM (inactive)", "14.9 µM (inactive)", "29.6 µM (inactive)", "> 100 µM (inactive)", "2.31 µM (inactive)", "27.7 µM (inactive)"]

====

System: A549
experiment: NCI tumour cell line growth inhibition, 48 h
Calls of active or inactive are those of the source. No stated cut-off is given here; in the data, active = GI50 up to about 1.1 µM and inactive = higher.
Your response should consist of one outcome taken from yes for active, no for inactive

Past entries and their recorded results:
molecule="COc1ccc(NC(=O)CC(=O)N2N=C(C)C(/N=N\\c3ccc(S(=O)(=O)c4ccc(/N=N/C5C(=O)N(C(=O)CC(=O)Nc6ccc(OC)cc6)N=C5C)cc4)cc3)C2=O)cc1 (stereo not drawn)" cat=no
molecule="COc1cc2c(c(OC)c1)C1(CC(CC#N)C2)SCCS1 (stereo not drawn)" cat=no
molecule=Cc1cc(N(CCC#N)CCC#N)ccc1/C=C1\N=C(c2cc([N+](=O)[O-])ccc2Cl)N(c2cccc(Cl)c2)C1=O cat=no
molecule=COC(=O)c1cc2c(cc1Cl)Sc1nnc(Nc3ccc(C)cc3)n1S2(=O)=O cat=no
molecule="C=C1CCCCCCCCCCC1[S+]([O-])c1ccccc1 (stereo not drawn)" cat=no

Data request: Hello, I am checking results. What call was entered for `c1ccc2c(c1)Nc1cccc3c1c-2nc1cc2ccccc2cc13` ?
Data returned: no

Data request: Proceed to `C[C@]12O[C@@]3(C)O[C@@]3(C)[C@]3(C)O[C@]3(C)[C@@]1(C)O2`
Data returned: no

Data request: Proceed to `O=C(NCCCN(CCCCN(CCCNC(=O)C(F)(F)F)Cc1ccc2ccccc2c1)Cc1ccc2ccccc2c1)C(F)(F)F`
Data returned: no

Data request: Proceed to N#CC(c1ccnc(Cl)n1)c1nc2ccccc2s1 (stereo not drawn)
Data returned: no

Data request: Proceed to `CNS(=O)(=O)NNS(=O)(=O)c1ccc(Br)cc1`
Data returned: no

====

System: A498
experiment: NCI tumour cell line growth inhibition, 48 h
Calls of active or inactive are those of the source. Rule as the data show it: active = GI50 up to about 1.1 µM and inactive = higher.
reported.metric: GI50

molecule="NCCCC1NC(=O)/C(=C(O)/C=C/C2CCC[C@@H]2CC2SCCS2)C1=O (stereo not given in full)" reported_metric=GI50 reading="> 100 µM (inactive)"

Batch request: GI50 per item, same order as input.
1. CC[C@@]1(O)C(=O)OCc2c1cc1n(c2=O)Cc2c-1nc1ccccc1c2/C=N/NC(=O)C[N+](C)(C)C
2. COc1ccc(OC)c(-c2cc(C(=O)O)c3cc4ccccc4cc3n2)c1
3. CC[C@@]1(OC(=O)CN(C)C)C(=O)OCc2c1cc1n(c2=O)Cc2cc3ccccc3nc2-1
4. COc1ccc(C(=O)C2CC3(CCC2(O)c2ccc(OC)cc2)CC(=O)Nc2ccccc2C3=O)cc1 (stereo not given)

Data returned:
["7.76 µM (inactive)", "> 100 µM (inactive)", "0.205 µM (active)", "> 100 µM (inactive)"]

Batch request: GI50 per item, same order as input.
1. O=C(O)c1[nH]c(C(=O)O)c(CC(F)(F)C(F)(F)C(F)(F)F)c1CC(F)(F)C(F)(F)C(F)(F)F
2. Cc1ccc2nc(-c3nccn3C)cc(C(=O)NC(C)CN(C)C)c2c1 (stereo not given)
3. O=C(NCC(=O)N1CCOC1=O)OCc1ccccc1
4. COC(=O)CCc1ccc2c(c1)C(=O)CC2
5. O=C(O)CCC(=O)c1ccc2ccc3cccc4ccc1c2c34

Data returned:
> 100 µM (inactive)
> 100 µM (inactive)
> 100 µM (inactive)
> 100 µM (inactive)
67.5 µM (inactive)
